The reported measurements were obtained from patent US20260315434A1.

test: Conversion (release) of prodrug salts to parent compound in mouse plasma; type: in vitro ADME; details: mouse, plasma, 37 °C, 8 h, read-out: Release rate (conversion to Compound 1)
quantity-kind: metabolised at 8 h (%)
Express the result in % but write the number alone.

Entry CCCN(CCC)C[C@@H]1C(=O)O[C@H]2[C@H]1CC[C@@]1(C)C[C@]13CC[C@@](C)(O)[C@H]23 ; metabolised at 8 h = 40.2

Entry CCN1CCN(C[C@@H]2C(=O)O[C@H]3[C@H]2CC[C@@]2(C)C[C@]24CC[C@@](C)(O)[C@H]34)CC1 ; metabolised at 8 h = 48.2

Entry CCOC(=O)[C@@H]1CCCN1C[C@@H]1C(=O)O[C@H]2[C@H]1CC[C@@]1(C)C[C@]13CC[C@@](C)(O)[C@H]23 ; metabolised at 8 h = 45.1

Entry C[C@@]12CC[C@@H]3[C@H](OC(=O)[C@H]3CN3CCOCC3)[C@@H]3[C@]1(CC[C@@]3(C)O)C2 ; metabolised at 8 h = 43.8
